Experiment: Pharmacokinetics following oral administration in the rat
Format: in vivo
Conditions: male, rat, plasma, po, 3 mg/kg, rat, 3 mg/kg oral, 24 h, individual male animals; read-out: Concentration in Blood
METRIC NAME: concentration at 24 h

// query Provide concentration at 24 h value for the following compound: Cc1c(Cc2ccc(S(C)(=O)=O)cc2)c2cc(F)ccc2n1CC(=O)O [Compound B, reference compound]
// result 0 ng/mL

* * *

Provide the recorded concentration at 1 h for the entries that follow.
Assay: Pharmacokinetics following oral administration in the rat
Format: in vivo
Conditions: male, rat, plasma, po, 3 mg/kg, rat, 3 mg/kg oral, 1 h, individual male animals; read-out: Concentration in Blood
Numbers only, in ng/mL.

Previously resolved entries follow.
Cc1c(Cc2ccc(S(C)(=O)=O)cc2)c2cc(F)ccc2n1CC(=O)O [Compound B, reference compound] : 252
Cc1c(Cc2ccccc2S(=O)(=O)c2ccc(Cl)cc2)c2cc(F)ccc2n1CC(=O)O : 2960
Cc1c(Cc2ccccc2S(=O)(=O)c2ccc(F)cc2)c2cc(F)ccc2n1CC(=O)O : 2490
Cc1c(Cc2ccc3ccccc3n2)c2cc(F)ccc2n1CC(=O)O [Compound A, reference compound] : 875

Kindly consider the entry below.
// query Read off the recorded concentration at 1 h for Cc1c(Cc2ccccc2S(=O)(=O)c2ccccc2)c2cc(F)ccc2n1CC(=O)O
// result 3840

* * *

Experiment: Pharmacokinetics following oral administration in the rat
Format: in vivo
Details: male, rat, plasma, po, 3 mg/kg, rat, 3 mg/kg oral, 1 h, mean; read-out: Concentration in Blood, Mean
Decide using concentration at 1 h alone. Strictly below 800 ng/mL: Yes. Equal to or above 800 ng/mL: No.

Please review the following examples before continuing.
Cc1c(Cc2ccccc2S(=O)(=O)c2ccccc2)c2cc(F)ccc2n1CC(=O)O [Compound 1] : No
Cc1c(Cc2ccc(S(C)(=O)=O)cc2)c2cc(F)ccc2n1CC(=O)O [Compound B, reference compound] : Yes
Cc1c(Cc2ccccc2S(=O)(=O)c2ccc(F)cc2)c2cc(F)ccc2n1CC(=O)O [Compound 3] : No

Turning to the following compound.
// query Consider the compound Cc1c(Cc2ccccc2S(=O)(=O)c2ccc(Cl)cc2)c2cc(F)ccc2n1CC(=O)O [Compound 2] . Is its concentration at 1 h strictly less than 800 ng/mL?
// result No

* * *

System: PGD2 induced eosinophil shape change
Assay: Human whole blood eosinophil shape change assay
Type: cell-based
Conditions: Homo sapiens, Eosinophil, 10 nm PGD2-induced eosinophil shape change, human whole blood; read-out: Whole Blood IC50
Kindly state log10 of IC50 for each of the entries shown.
Kindly note that the scale is log10 and the underlying IC50 is in µM.

Here's what some known entries look like.
Cc1c(Cc2ccc(S(C)(=O)=O)cc2)c2cc(F)ccc2n1CC(=O)O [Compound B, reference compound] : -2.10
Cc1c(Cc2cccc(S(=O)(=O)c3ccc(Cl)cc3)c2)c2cc(F)ccc2n1CC(=O)O : 0.67
Cc1c(Cc2cccc(S(=O)(=O)c3ccccc3)c2)c2cc(F)ccc2n1CC(=O)O : 0.18
Cc1c(Cc2ccc(S(=O)(=O)c3ccc(F)cc3)cc2)c2cc(F)ccc2n1CC(=O)O : -1.15
Cc1c(Cc2ccc(S(=O)(=O)c3ccccc3)cc2)c2cc(F)ccc2n1CC(=O)O : -0.56
Cc1c(Cc2ccc(S(=O)(=O)c3ccc(Cl)cc3)cc2)c2cc(F)ccc2n1CC(=O)O : -0.31
Cc1c(Cc2ccccc2S(=O)(=O)c2ccc(F)cc2)c2cc(F)ccc2n1CC(=O)O : -2.22
Cc1c(Cc2ccccc2S(=O)(=O)c2ccccc2)c2cc(F)ccc2n1CC(=O)O : -2.30
Cc1c(Cc2ccc3ccccc3n2)c2cc(F)ccc2n1CC(=O)O [Compound A, reference compound] : -0.99

Note: attention shifts to another entry.
// query Please report log10 of IC50 for the following compound: Cc1c(Cc2ccccc2S(=O)(=O)c2ccc(Cl)cc2)c2cc(F)ccc2n1CC(=O)O
// result -2.70

* * *

Test: Pharmacokinetics following oral administration in the rat
Format: in vivo
Details: male, rat, plasma, po, 3 mg/kg, rat, 3 mg/kg p.o, individual male animals; read-out: T½ (converted)
Method: Investigation of Pharmacokinetics of Compounds of General Formula (I) Following Oral Administration in the Rat Rats were weighed on the day of dosing. The test material was prepared as a 0.3 mg/mL suspension in 1% carboxy-methyl-cellulose (CMC). Three groups of 3 rats were dosed as follows: […] The plasma samples were analysed for test material concentrations at BioDynamics using an LC-MS/MS method developed at BioDynamics.
Please go through the items and note down their half-life.
Numbers only, in h.

// known answers, use as guide
Cc1c(Cc2ccccc2S(=O)(=O)c2ccc(F)cc2)c2cc(F)ccc2n1CC(=O)O [Compound 3] : 3.26
Cc1c(Cc2ccccc2S(=O)(=O)c2ccccc2)c2cc(F)ccc2n1CC(=O)O [Compound 1] : 4.11

Please look at the following compound next.
// query Quickly give me recorded half-life for Cc1c(Cc2ccc(S(C)(=O)=O)cc2)c2cc(F)ccc2n1CC(=O)O [Compound B, reference compound]
// result 3.41

* * *

Test: Pharmacokinetics following oral administration in the rat
Type: in vivo
Conditions: male, rat, plasma, po, 3 mg/kg, rat, 3 mg/kg oral, 4 h, mean; read-out: Concentration in Blood, Mean
METRIC NAME: concentration at 4 h (ng/mL)
Give bare numbers, in ng/mL.

Batch request: concentration at 4 h per item, same order as input.
1. Cc1c(Cc2ccccc2S(=O)(=O)c2ccc(Cl)cc2)c2cc(F)ccc2n1CC(=O)O
2. Cc1c(Cc2ccc(S(C)(=O)=O)cc2)c2cc(F)ccc2n1CC(=O)O [Compound B, reference compound]
3. Cc1c(Cc2ccccc2S(=O)(=O)c2ccccc2)c2cc(F)ccc2n1CC(=O)O
4. Cc1c(Cc2ccc3ccccc3n2)c2cc(F)ccc2n1CC(=O)O [Compound A, reference compound]
5. Cc1c(Cc2ccccc2S(=O)(=O)c2ccc(F)cc2)c2cc(F)ccc2n1CC(=O)O

// result
1370
283
1540
857
2400

* * *

Assay: Pharmacokinetics following oral administration in the rat
Type: in vivo
Conditions: male, rat, plasma, po, 3 mg/kg, rat, 3 mg/kg p.o, mean, summary without unit (Table 12); read-out: Cmax (mean)
Kindly state Cmax for each of the entries shown.
One number for each entry, in µg/mL.

Here's what some known entries look like.
Cc1c(Cc2ccc(S(C)(=O)=O)cc2)c2cc(F)ccc2n1CC(=O)O [Compound B, reference compound] : 0.381
Cc1c(Cc2ccccc2S(=O)(=O)c2ccccc2)c2cc(F)ccc2n1CC(=O)O [Compound 1] : 4.16
Cc1c(Cc2ccccc2S(=O)(=O)c2ccc(Cl)cc2)c2cc(F)ccc2n1CC(=O)O [Compound 2] : 2.95

List the reported Cmax of each compound below.
1. Cc1c(Cc2ccccc2S(=O)(=O)c2ccc(F)cc2)c2cc(F)ccc2n1CC(=O)O [Compound 3]
2. Cc1c(Cc2ccc3ccccc3n2)c2cc(F)ccc2n1CC(=O)O [Compound A, reference compound]

// result
[4.08, 1.25]

* * *

Kindly supply the reported Tmax values for the records listed here.
Assay: Pharmacokinetics following oral administration in the rat
Format: in vivo
Conditions: male, rat, plasma, po, 3 mg/kg, rat, 3 mg/kg p.o, individual male animals; read-out: Tmax
Answer format reminder: number followed by unit.

Cc1c(Cc2ccccc2S(=O)(=O)c2ccc(Cl)cc2)c2cc(F)ccc2n1CC(=O)O [Compound 2] : 1 h

Below are some compounds; for each one, tell me its Tmax.
1. Cc1c(Cc2ccc3ccccc3n2)c2cc(F)ccc2n1CC(=O)O [Compound A, reference compound]
2. Cc1c(Cc2ccc(S(C)(=O)=O)cc2)c2cc(F)ccc2n1CC(=O)O [Compound B, reference compound]
3. Cc1c(Cc2ccccc2S(=O)(=O)c2ccccc2)c2cc(F)ccc2n1CC(=O)O [Compound 1]
4. Cc1c(Cc2ccccc2S(=O)(=O)c2ccc(F)cc2)c2cc(F)ccc2n1CC(=O)O [Compound 3]

// result
1. 2 h
2. 2 h
3. 2 h
4. 2 h

* * *

Assay: Pharmacokinetics following oral administration in the rat
Type: in vivo
Details: male, rat, plasma, po, 3 mg/kg, rat, 3 mg/kg oral, 12 h, mean; read-out: Concentration in Blood, Mean
METRIC NAME: concentration at 12 h (ng/mL)
Give bare numbers, in ng/mL.

Cc1c(Cc2ccccc2S(=O)(=O)c2ccccc2)c2cc(F)ccc2n1CC(=O)O : 375

Need concentration at 12 h for each of these compounds.
1. Cc1c(Cc2ccccc2S(=O)(=O)c2ccc(Cl)cc2)c2cc(F)ccc2n1CC(=O)O
2. Cc1c(Cc2ccc(S(C)(=O)=O)cc2)c2cc(F)ccc2n1CC(=O)O [Compound B, reference compound]
3. Cc1c(Cc2ccccc2S(=O)(=O)c2ccc(F)cc2)c2cc(F)ccc2n1CC(=O)O

// result
100
27.3
277
